target: Hexokinase-4 (Homo sapiens) (UniProt P35557); test: Activity of activated human recombinant Glucokinase assessed as maximum glucose phosphorylation measured over 5 mins by spectrophotometry relative to unactivated enzyme
Sequence (P35557 whole entry): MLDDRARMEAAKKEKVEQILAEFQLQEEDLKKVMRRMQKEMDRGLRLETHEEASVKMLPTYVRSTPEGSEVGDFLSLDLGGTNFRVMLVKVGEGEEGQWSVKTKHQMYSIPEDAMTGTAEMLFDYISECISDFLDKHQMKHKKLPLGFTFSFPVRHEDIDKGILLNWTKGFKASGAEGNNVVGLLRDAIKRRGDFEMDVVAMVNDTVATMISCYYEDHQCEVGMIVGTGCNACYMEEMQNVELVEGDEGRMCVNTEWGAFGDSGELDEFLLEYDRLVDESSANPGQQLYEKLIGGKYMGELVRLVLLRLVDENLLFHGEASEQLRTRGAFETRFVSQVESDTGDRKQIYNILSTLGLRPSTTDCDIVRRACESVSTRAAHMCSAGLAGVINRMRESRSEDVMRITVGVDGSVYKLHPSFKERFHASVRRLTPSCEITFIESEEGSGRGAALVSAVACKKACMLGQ
ASSAY METRIC: Ratio

{"STRUCTURE STRING": "CCc1ncccc1Oc1cc(CCCCOC)cnc1NC(=O)NC", "Ratio": 0.74}
{"STRUCTURE STRING": "CCn1nccc1Oc1cc(C[C@H]2C[C@@](C)(O)C2)cnc1NC(=O)NC", "Ratio": 0.8}
{"STRUCTURE STRING": "CCn1nccc1Oc1cc(C[C@H]2CC[C@](C)(O)CC2)cnc1NC(=O)NC", "Ratio": 0.71}
